- TARGET_OF_ASSAY: Lethal factor (Bacillus anthracis)
- TEST_NAME: Lethal factor protease inhibitors, Bacillus anthracis, multiplex microsphere cleavage assay, validation set (AID 588461)
- TEST_SETTINGS: flow cytometry, at 10 µM, hits give high values

COMPOUND	TARGET_OF_ASSAY	MEASUREMENT_UNIT	inhibition
O=C(Nc1ncc2c(n1)CC(c1ccco1)CC2=O)c1ccco1 (stereo unspecified)	Lethal factor (Bacillus anthracis)	%	-10.4
COc1ccc2c3c([nH]c2c1)C1(NCC3)C(=O)Nc2ccccc21 (stereo unspecified)	Lethal factor (Bacillus anthracis)	%	-4.5
O=C(CCc1c[nH]c2ccccc12)NCc1ccco1	Lethal factor (Bacillus anthracis)	%	5.8
Cc1ccc(C(=O)N2CC3(C(C)C)CN(C(=O)c4ccc(C)cc4)CC(C(C)C)(C2)C3=O)cc1	Lethal factor (Bacillus anthracis)	%	-2.5
CCOc1ccc(C(=O)NCC2(c3ccccc3)CCOCC2)cc1	Lethal factor (Bacillus anthracis)	%	-6.4
COC(=O)c1[nH]c2ccc(F)cc2c1NC(=O)C1=COCCO1	Lethal factor (Bacillus anthracis)	%	-4.9
COc1ccc2c(c1)C(=O)CC(c1ccccc1F)O2 (stereo unspecified)	Lethal factor (Bacillus anthracis)	%	-0.9
Cc1nc2ccccc2c(=O)n1-c1ccc(C(=O)O)cc1	Lethal factor (Bacillus anthracis)	%	-5.6
Clc1cc(-c2ccc(/C=N/n3cnnc3)o2)ccc1Br	Lethal factor (Bacillus anthracis)	%	0.9
COc1cc2c3c(c1)C(C)CC(C)(C)N3C(=O)C2=O (stereo unspecified)	Lethal factor (Bacillus anthracis)	%	-5.6
CC1CCN(CCOCCOc2ccccc2Br)CC1	Lethal factor (Bacillus anthracis)	%	3.9

---

- TARGET_OF_ASSAY: Lethal factor (Bacillus anthracis)
- TEST_NAME: Lethal factor protease inhibitors, Bacillus anthracis, multiplex microsphere cleavage assay, validation set (AID 588461)
- TEST_SETTINGS: flow cytometry, at 10 µM, hits give high values
MEASURED_ENDPOINT: inhibition (%)

MOLECULE	OBSERVED_MEASUREMENT
O=C(O)c1ccc(OCCn2ccnc2)cc1	-0.6
C[C@H]([C@@H](N)C(=O)N[C@@H](C(=O)O)[C@@H]1O[C@H](n2ccc(=O)[nH]c2=O)[C@@H](O)[C@H]1O)[C@@H](O)c1ccc(O)cn1	-3.6
CCc1cccc2c3c([nH]c12)C(CC)(CC(=O)O)OCC3 (stereo not drawn)	-0.8
O=C1CC(c2ccc(OCCCCCOc3ccc(C4CC(=O)NC4=O)cc3)cc2)C(=O)N1 (stereo not drawn)	2.1
Cc1cc(-c2nn(-c3ccccc3F)cc2CN2CCCC(O)C2)c(C)s1 (stereo not drawn)	-0.9
CC(NC(=O)OCc1ccccc1)C(=O)N1CC(O)CC1C(=O)O (stereo not drawn)	1.4
CN(C)CCCN1c2ccccc2CCc2ccc(Cl)cc21	-1.4
CCCOc1ccc(-c2cc(C(=O)NCC3CCCO3)c3ccccc3n2)cc1 (stereo not drawn)	-5.1
COCCCNc1nc2c([nH]1)c(=O)[nH]c(=O)n2C	1.3
CCSC(SCC)[C@H](O)[C@@H](O)[C@H](O)[C@H](O)CO	-1.5
Cc1cnc(N)c2c(=O)oc3ccccc3c12	-4.6
CC(C)c1ccc(/C=C/C(=O)O)cc1	11
Cc1ccc(N2CCN(C(=S)c3ccc(-c4cccc([N+](=O)[O-])c4)o3)CC2)cc1	-5.3
Cc1ccc(OCc2nc(-c3cccnc3)no2)cc1C	-6.5
Cc1cnc(NC(=O)C2=C(O)c3ccccc3S(=O)(=O)N2C)s1	1.4
O=C(CN1C(=O)c2ccccc2C1=O)Nc1cccc([N+](=O)[O-])c1	-2
COc1ccc2cc(-c3nc4ccccc4n3C)c(=O)oc2c1	1
O=C1Nc2ccc3sc4ccccc4c3c2C1=O	1.4
COc1ccc2[nH]c(=O)c3c(c2c1)OC(C)(C)C=C3	-4.6
COCCCC/C(=N\OCCN)c1ccc(C(F)(F)F)cc1	-0.1
C=CCNC(=O)c1ccc(-c2cccc([N+](=O)[O-])c2)o1	-3
CC(=O)O[C@H]1CSC[C@H]1NC(=O)c1ccccc1	-4.4
CCCC(=O)Nc1ccccc1NC(C)=O	-2.9
c1ccc(CC2=NCCN2)cc1	-4.7
Cc1cn([C@H]2C=C[C@@H](CO)O2)c(=O)[nH]c1=O	-0.8
Cc1ccc2[nH]c3c(c2c1)CN(C(=O)CN1CCSCC1)CC3	11.6
NC(N)=N/N=C/c1c(Cl)cccc1Cl	0.5
COc1c2occc2c(OC)c2c(=O)cc(C)oc12	4.5
Cc1c2c(nc3c(C)cccc13)OC(C)C2 (stereo not drawn)	-4.3
CC(=O)CCc1c(C)c2cccc(C)c2[nH]c1=O	-3.4
CCOC(=O)C(=O)N1CCN(c2ccccc2OC)CC1	-4.9
COc1cc(CNCCc2ccccc2F)ccc1OCC(=O)N1CCCCC1	1
CC(=O)Oc1ccc(C(=O)O)cc1OC(C)=O	2.4
Nc1nc(Cl)nc2c1ncn2[C@@H]1O[C@H](CO)[C@@H](O)[C@H]1O	-6.9
C[C@H]1OC[C@@H](C[N+](C)(C)C)O1	4.6
Cc1ccc(SCC(=O)Nc2nccs2)cc1	-5.6
NC(=O)N1c2ccccc2CC(=O)c2ccccc21	0.4
Cc1cc(O)c(C(=O)Cc2csc(C)n2)c(O)c1	0.7
NCCc1ccc(O)c(O)c1	-8.7
COc1ccc(C2=NOC(COc3ccc4c(C)cc(=O)oc4c3)C2)c(OC)c1 (stereo not drawn)	0
Cc1csc(N)n1	3
COc1cc(/C=C/C(=O)O)cc(S(=O)(=O)NCCCO)c1OC	2.3
Cc1ccc(S(=O)(=O)N2CCC(C(=O)N[C@@H](C)C(=O)NC3CCS(=O)(=O)C3)CC2)cc1 (stereo partly drawn)	11.8
O=C(Oc1cccccc1=O)c1ccccc1	0.9
CC(=O)OCC1OC(n2ccc(=O)[nH]c2=O)C(O)C1O (stereo not drawn)	-5.3
COc1ccc(C2=CC(=O)C=CC2=O)cc1	-4.1
CC(=O)[C@@]1(O)CC[C@H]2[C@@H]3CCC4=CC(=O)CC[C@]4(C)[C@H]3[C@@H](O)C[C@@]21C	1.8
Cc1cc(C(=O)Nc2ccccc2C(=O)N2CCCCC2)ccc1[N+](=O)[O-]	-0.1
